Tested on: NHLF cells
Experiment: RealTime–Glo MT viability assay
Conditions: human, 10 µM
Where a name gives a salt, the structure may show the parent alone.
Test Readout: Effect on viability at 10 µM [% reduction] (% reduction)
Quick note: give the figure in % reduction, leave out the unit.

[
  {
    "Molecule": "CC[C@@]1(O)C(=O)OCc2c1cc1n(c2=O)Cc2cc3c(CN(C)C)c(O)ccc3nc2-1 [Topotecan]",
    "Reported Result": 8
  },
  {
    "Molecule": "O=C1c2c(O)ccc(O)c2C(=O)c2c(NCCNCCO)ccc(NCCNCCO)c21 [Mitoxantrone dihydrochloride]",
    "Reported Result": 31
  },
  {
    "Molecule": "COc1ccc(CCN2CCC(Nc3nc4ccccc4n3Cc3ccc(F)cc3)CC2)cc1 [Astemizole]",
    "Reported Result": 49
  },
  {
    "Molecule": "Oc1c(Cl)cc(Cl)c2cccnc12 [Chloroxine]",
    "Reported Result": 14
  },
  {
    "Molecule": "COc1cccc2c1C(=O)c1c(O)c3c(c(O)c1C2=O)C[C@@](O)(C(=O)CO)C[C@@H]3O[C@H]1C[C@H](N)[C@H](O)[C@H](C)O1 [Doxorubicin hydrochloride]",
    "Reported Result": 20
  },
  {
    "Molecule": "[H]/N=C(\\N/C(=N/[H])NCCCCCCNC(=N)NC(=N)Nc1ccc(Cl)cc1)Nc1ccc(Cl)cc1 [Chlorhexidine]",
    "Reported Result": 24
  }
]

Ask: Recorded Effect on viability at 10 µM [% reduction] for C=CC(=O)N1CCC[C@@H](n2nc(-c3ccc(Oc4ccccc4)cc3)c3c(N)ncnc32)C1 [PCI–32765 (Ibrutinib), Ibrutinib] , please?
Result: 22

---

Test system: normal human lung fibroblasts (NHLF)
Assay: Phenotypic high-content assay (HCA) of TGF–β1–induced fibroblast–to–myofibroblast differentiation
Format: cell-based
Details: Homo sapiens, Fibroblast, 48 h, NHLF, 5 ng/ml TGF–β1 for 48 h, compound added with TGF–β1; mean ± SD; read-out: HCA IC50
Structures can show the parent of a compound that is named as a salt.
Entries and their pIC50 values follow.
Worth noting: pIC50 values are minus log10 of concentrations stated in mol/L.

Examples from the recorded data:
[
  {
    "Molecule": "COc1cccc2c1C(=O)c1c(O)c3c(c(O)c1C2=O)C[C@@](O)(C(=O)CO)C[C@@H]3O[C@H]1C[C@H](N)[C@@H](O)[C@H](C)O1 [Epirubicin hydrochloride]",
    "System Tested": "normal human lung fibroblasts (NHLF)",
    "pIC50": 5.97
  },
  {
    "Molecule": "CCCCC[C@H](O)/C=C/[C@H]1[C@H](O)CC(=O)[C@@H]1CCCCCCC(=O)O",
    "System Tested": "normal human lung fibroblasts (NHLF)",
    "pIC50": 8.05
  }
]

Ask: Recorded pIC50 for `C[C@@H](Oc1cc(-c2cnn(C3CCNCC3)c2)cnc1N)c1c(Cl)ccc(F)c1Cl` , please?
Result: 5.82

---

System: COL1 protein in NHLF cells
Experiment: RapidFire MS/MS quantification of COL1 (IPQA), standard assay
Format: cell-based, human
Conditions: Homo sapiens, Col1, 48 h, NHLF, 5 ng/ml TGF–β1, lysed 48 h after TGF–β1, normalized to tubulin; mean ± SD; read-out: MS / MS COL1 IC50
Test Readout: pIC50
Worth noting: pIC50 values are minus log10 of concentrations stated in mol/L.

Ask: Recorded pIC50 for `Cc1cccc(-c2[nH]c(CNc3ccccc3F)nc2-c2ccc3ncnn3c2)n1` , please?
Result: 6.95

Ask: Recorded pIC50 for `COC(=O)c1ccc2c(c1)NC(=O)/C2=C(\Nc1ccc(N(C)C(=O)CN2CCN(C)CC2)cc1)c1ccccc1` , please?
Result: 5.80

Ask: Recorded pIC50 for `O=c1cc(N2CCOCC2)oc2c(-c3ccccc3)cccc12` , please?
Result: 4.35

---

Tested on: normal human lung fibroblasts (NHLF)
Assay: Phenotypic high-content assay (HCA) of TGF–β1–induced fibroblast–to–myofibroblast differentiation
Format: cell-based
Settings: Homo sapiens, Fibroblast, 48 h, NHLF, 5 ng/ml TGF–β1 for 48 h, compound added with TGF–β1; mean ± SD; read-out: HCA IC50
Strictly below 700 nM in IC50: yes (1). Otherwise: no (0).

[
  {
    "Smiles": "CC(C)(C)c1ccc(CN(Cc2cccc(OCC(=O)O)c2)S(=O)(=O)c2cccnc2)cc1",
    "Label": "yes (1)"
  }
]

Ask: Regarding `[H]/N=C(\N/C(=N/[H])NCCCCCCNC(=N)NC(=N)Nc1ccc(Cl)cc1)Nc1ccc(Cl)cc1` , kindly confirm whether its IC50 is beneath 700 nM.
Result: no (0)

Ask: Regarding `Oc1c(Cl)cc(Cl)c2cccnc12` , kindly confirm whether its IC50 is beneath 700 nM.
Result: no (0)

Ask: Regarding `C[C@]12CC[C@H](O)C[C@H]1CC[C@@H]1[C@@H]2C[C@@H](O)[C@]2(C)[C@@H](C3=CC(=O)OC3)CC[C@]12O` , kindly confirm whether its IC50 is beneath 700 nM.
Result: yes (1)

---

System: NHLF cells
Test: RealTime–Glo MT viability assay
Details: human, 10 µM
Counter-ions that a name gives are not always drawn.
Test Readout: Effect on viability at 10 µM [% reduction]

Examples from the recorded data:
[
  {
    "Molecule": "CC(C)C[C@H](NC(=O)[C@H](CCc1ccccc1)NC(=O)CN1CCOCC1)C(=O)N[C@@H](Cc1ccccc1)C(=O)N[C@@H](CC(C)C)C(=O)[C@@]1(C)CO1",
    "Reported Result": "52 % reduction"
  },
  {
    "Molecule": "CC(=O)O[C@H]1C[C@H](O[C@H]2[C@@H](O)C[C@H](O[C@H]3[C@@H](O)C[C@H](O[C@H]4CC[C@@]5(C)[C@H](CC[C@@H]6[C@@H]5C[C@@H](O)[C@]5(C)[C@@H](C7=CC(=O)OC7)CC[C@]65O)C4)O[C@@H]3C)O[C@@H]2C)O[C@H](C)[C@H]1O[C@@H]1O[C@H](CO)[C@@H](O)[C@H](O)[C@H]1O [Lanatoside C]",
    "Reported Result": "19 % reduction"
  }
]

Ask: Recorded Effect on viability at 10 µM [% reduction] for COc1cccc2c1C(=O)c1c(O)c3c(c(O)c1C2=O)C[C@@](O)(C(C)=O)C[C@@H]3O[C@H]1C[C@H](N)[C@H](O)[C@H](C)O1 [Daunorubicin hydrochloride] , please?
Result: 14 % reduction
